Assay Text: Volume of distribution in dog
Assay type: ADME, organism-based, Canis lupus familiaris
Assay Context: in vivo
Readout Name: Vd (L/kg)
Form entry: value (L/kg) — number only.

Structure As Smiles | Units | Vd
COc1cc2c(Nc3cccc4cccnc34)c(C(N)=O)cnc2cc1-c1c(C)noc1C | L/kg | 1.3

Looking up COc1cc2c(cc1-c1c(C)noc1C)ncc1[nH]c(=O)n([C@H](C)c3ccccn3)c12 , I found its Vd recorded as 3

---

Assay Text: Aqueous solubility of the compound at pH 5
Type: physicochemical
Assay Context: aqueous medium
solubility values for the molecules below.
Form entry: value (µg/mL) — number only.

Structure As Smiles | solubility (µg/mL)
COc1cc2c(NC3CCCCC3)c(C(N)=O)cnc2cc1-c1c(C)noc1C | 236

Looking up COc1cc2c(Nc3ccccc3F)c(C(N)=O)cnc2cc1-c1c(C)noc1C , I found its solubility recorded as 13

---

Tested on: Blood
Assay Text: Antiinflammatory activity in human whole blood assessed as inhibition of LPS-induced IL8 production
Type: functional, tissue-based
Calls of active or inactive are those of the source. The rule behind the calls is not given here.
Readout Name: Activity

Worked examples, 4 molecules total:
Structure As Smiles | Readout Name | Assay Value
COc1cc2c(NC3CCCCC3)c(C(N)=O)cnc2cc1-c1c(C)noc1C | Activity | inactive
COc1cc2c(cc1-c1c(C)noc1C)ncc1[nH]c(=O)n([C@H](C)c3ccccn3)c12 | Activity | inactive
COc1cc2c(Nc3ccccc3F)c(C(N)=O)cnc2cc1-c1c(C)noc1C | Activity | inactive
COc1cc2c(Nc3cccc4cccnc34)c(C(N)=O)cnc2cc1-c1c(C)noc1C | Activity | inactive

Now consider a different molecule.
Looking up COc1cc2c(cc1-c1c(C)noc1C)ncc1[nH]c(=O)n(Cc3ccccn3)c12 , I found its Activity recorded as inactive

---

Measured On: Bromodomain-containing protein 3 (Homo sapiens, UniProt Q15059)
Sequence (Q15059 whole entry): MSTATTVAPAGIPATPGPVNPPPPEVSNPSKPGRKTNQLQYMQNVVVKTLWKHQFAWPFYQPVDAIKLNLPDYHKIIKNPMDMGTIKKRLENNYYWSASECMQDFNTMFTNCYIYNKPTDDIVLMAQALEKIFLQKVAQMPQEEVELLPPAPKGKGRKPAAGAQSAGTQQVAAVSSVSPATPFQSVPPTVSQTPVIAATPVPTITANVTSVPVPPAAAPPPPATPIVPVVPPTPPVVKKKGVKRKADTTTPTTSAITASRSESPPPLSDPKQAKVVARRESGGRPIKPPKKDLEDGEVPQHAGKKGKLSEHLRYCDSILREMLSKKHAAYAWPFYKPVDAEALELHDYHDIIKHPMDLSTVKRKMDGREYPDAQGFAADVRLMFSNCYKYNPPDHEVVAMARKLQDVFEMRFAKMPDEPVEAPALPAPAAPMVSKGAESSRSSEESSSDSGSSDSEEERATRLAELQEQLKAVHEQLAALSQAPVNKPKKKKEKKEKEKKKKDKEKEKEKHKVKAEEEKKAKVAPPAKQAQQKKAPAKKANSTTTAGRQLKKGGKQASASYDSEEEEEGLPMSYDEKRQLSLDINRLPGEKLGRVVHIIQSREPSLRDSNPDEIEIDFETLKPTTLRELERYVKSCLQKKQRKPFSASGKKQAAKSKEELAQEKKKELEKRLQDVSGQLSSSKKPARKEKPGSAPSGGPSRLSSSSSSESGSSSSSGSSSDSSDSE
Assay Text: Binding affinity to BRD3 assessed as inhibition of Alexa Fluor 488 binding after 60 mins by fluorescence anisotropic analysis
log10(IC50) values for the compounds below.
Plainly stated, the numbers are log10 of IC50 given in µM.

Worked examples, 10 compounds total:
Structure As Smiles | log10(IC50)
COc1cc2c(Nc3ccccc3F)c(C(N)=O)cnc2cc1-c1c(C)noc1C | -0.50
Cc1noc(C)c1-c1ccc2c(Nc3ccccc3C(C)(C)C)c(C(=O)O)cnc2c1 | -0.30
COc1cc2c(Nc3cccc4cccnc34)c(C(N)=O)cnc2cc1-c1c(C)noc1C | -0.30
COc1cc2c(cc1-c1c(C)noc1C)ncc1[nH]c(=O)n(Cc3ccccn3)c12 | -0.30
COc1cc2c(NC3CCCCC3)c(C(N)=O)cnc2cc1-c1c(C)noc1C | -0.30
COc1cc2c(cc1-c1c(C)noc1C)ncc1[nH]c(=O)n([C@@H](C)c3ccccn3)c12 | -0.20
Cc1noc(C)c1-c1ccc2c(Nc3ccccc3F)c(C(N)=O)cnc2c1 | 0.50
COc1cc2c(cc1-c1c(C)noc1C)ncc1[nH]c(=O)n(-c3ccccc3F)c12 | -0.20
Cc1noc(C)c1-c1ccc2c(Nc3ccccc3F)c(C(=O)O)cnc2c1 | -0.20
COc1cc2c(cc1-c1c(C)noc1C)ncc1[nH]c(=O)n(Cc3ccccc3)c12 | -0.60

Looking up COc1cc2c(Nc3ccccc3F)ccnc2cc1-c1c(C)noc1C , I found its log10(IC50) recorded as 0.20

Looking up COc1cc2c(cc1-c1c(C)noc1C)ncc1[nH]c(=O)n(-c3ccccc3C(C)(C)C)c12 , I found its log10(IC50) recorded as -0.40
